The values you see were collected from the supplement of paper PMC11150407.

Some compounds, each annotated with its measured cell viability.
System: MOLM1 and UCSD/AML1 (averaged)
Assay: cell viability relative to DMSO control (POC); higher = less growth inhibition
Conditions: 1 µM; 72 h
The campaign covered roughly 3,000 compounds. About 45 (2%) showed an effect of 50% or more. This excerpt belongs to a sample that is enriched for strong results.

compound: CCOC(=O)C1=C(N)Oc2c(c(=O)oc3ccccc23)C1c1ccc(Cl)cc1Cl (stereo unspecified)
unit.label: %
cell viability: 104

compound: CCOC(=O)C1=C(N)Oc2c(c(=O)oc3ccccc23)C1c1cccc(Br)c1 (stereo unspecified)
unit.label: %
cell viability: 103

compound: Cc1ccc(C(c2c(O)c3ccccc3oc2=O)c2c(O)c3ccccc3oc2=O)cc1
unit.label: %
cell viability: 102

compound: CC(=O)OC1CCC2(C)C3CCC4(C)C(CC[C@]4(OC(C)=O)C(C)OC(C)=O)C3CC[C@H]2C1 (stereo partly specified)
unit.label: %
cell viability: 109

compound: COCCOC(=O)c1c(C)n(Cc2ccccc2Cl)c2ccc(O)cc12
unit.label: %
cell viability: 106

compound: CCOC(=O)C1=C(N)Oc2c(c(=O)oc3ccccc23)C1c1ccc(Cl)c(Cl)c1 (stereo unspecified)
unit.label: %
cell viability: 37.7
